In this section we review reported pIC50 values for a set of compounds.
- systemName: MAPKAPK2 (Homo sapiens)
pIC50: −log10 of the molar value.

structureNotation: CN1CC2(CCN(c3ccc4c(n3)Cn3cc(-c5ccc(C#N)cc5)cc3-c3nccn3-4)C2)C1
pIC50: 7.00 to 7.30

structureNotation: N#Cc1ccc(-c2cc3n(c2)Cc2nc(N4CC[C@@H](CN5CCC(O)CC5)C4)ccc2-n2ccnc2-3)cc1
pIC50: > 7.30

structureNotation: CN(C)C[C@H]1CN(c2ccc3c(c2)Cn2cc(-c4ccc(F)cc4)cc2-c2nccn2-3)C[C@@H]1O
pIC50: > 7.30

structureNotation: CNC[C@@H]1CCN(c2ccc3c(c2)Cn2cc(-c4ccc(F)cc4)cc2-c2nccn2-3)C1
pIC50: > 7.30

structureNotation: OC1CCN(C[C@H]2CCN(c3ccc4c(c3)Cn3cc(-c5ccccc5)cc3-c3nncn3-4)C2)CC1
pIC50: 6.70 to 7.00

Prompt: Form field - read-out: pIC50; system: MAPKAPK2 (Homo sapiens); submitted item: `CN(C)C[C@H]1CN(c2ccc3c(n2)Cn2cc(-c4ccc(F)cc4)cc2-c2ncnn2-3)C[C@H]1O`
Response: > 7.30

Prompt: Now this one: `C[C@@H](CO)NC[C@H]1CCN(c2ccc3c(n2)Cn2cc(-c4ccc(F)cc4)cc2-c2nccn2-3)C1`
Response: > 7.30

* * *

The compounds below have reported IC50 for MAPKAPK2 (Homo sapiens, UniProt P49137).

compound: CN(C)[C@H]1CCN(c2ccc3c(c2)Cn2cc(-c4ccc(C#N)cc4)cc2-c2ncnn2-3)C1
valueObserved: < 50 nM

compound: CC(C)(CO)NC[C@@H]1CCN(c2ccc3c(c2)Cn2cc(-c4ccc(F)cc4)cc2-c2ncnn2-3)C1
valueObserved: 50 to 100 nM

compound: CN(C)[C@H]1CN(c2ccc3c(c2)Cn2cc(-c4ccc(F)cc4)cc2-c2ncnn2-3)C[C@@H]1O
valueObserved: 100 to 200 nM

compound: CNC[C@@H]1CN(c2ccc3c(c2)Cn2cc(-c4ccc(F)cc4)cc2-c2nccn2-3)C[C@@H]1O
valueObserved: < 50 nM

compound: C[C@H](CO)NC[C@@H]1CCN(c2ccc3c(c2)Cn2cc(-c4ccc(F)cc4)cc2-c2nccn2-3)C1
valueObserved: < 50 nM

Prompt: Quick one: IC50 of NCC[C@H]1CN(c2ccc3c(c2)Cn2cc(-c4ccc(F)cc4)cc2-c2nccn2-3)C[C@@H]1O (relative stereo) ?
Response: < 50 nM

Prompt: Now this one: `CN1CC2(CCN(c3ccc4c(c3)Cn3c(cc(-c5ccc(C#N)cc5)c3Cl)-c3nncn3-4)C2)C1`
Response: 100 to 200 nM

* * *

In this section we review reported IC50 values for a set of compounds.
- systemName: MAPKAPK2 (Homo sapiens, UniProt P49137)
- Sequence (P49137 whole entry, species assumed): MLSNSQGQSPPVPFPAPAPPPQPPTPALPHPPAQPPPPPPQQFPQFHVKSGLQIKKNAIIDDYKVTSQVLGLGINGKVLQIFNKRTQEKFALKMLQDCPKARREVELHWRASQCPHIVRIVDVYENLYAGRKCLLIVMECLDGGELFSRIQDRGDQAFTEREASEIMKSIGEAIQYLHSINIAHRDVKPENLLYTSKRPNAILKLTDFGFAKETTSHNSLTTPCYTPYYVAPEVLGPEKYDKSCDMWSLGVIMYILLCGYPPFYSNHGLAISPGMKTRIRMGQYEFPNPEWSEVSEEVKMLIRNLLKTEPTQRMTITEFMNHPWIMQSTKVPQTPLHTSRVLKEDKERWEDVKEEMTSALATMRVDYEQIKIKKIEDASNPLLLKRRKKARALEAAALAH
- assayNotes: MK2 Enzymatic Assay
- Assay type: biochemical
- cond: 0.5 nM MAPKAPK2, 3 μM ATP, 2 μM Ser/Thr4 peptide, 23° C., values given as concentration bins

compound: CN(C)[C@@H]1CCN(c2ccc3c(c2)Cn2cc(-c4ccc(C#N)cc4)cc2-c2ncnn2-3)C1 [Compound 259]
systemName: MAPKAPK2 (Homo sapiens, UniProt P49137)
IC50: < 50 nM
//
compound: CN(C)C[C@@H]1CN(c2ccc3c(n2)Cn2cc(-c4ccc(F)cc4)cc2-c2nccn2-3)C[C@@H]1O [Compound 430]
systemName: MAPKAPK2 (Homo sapiens, UniProt P49137)
IC50: < 50 nM
//
compound: CNC[C@H]1CN(c2ccc3c(c2)Cn2cc(-c4ccc(F)cc4)cc2-c2nccn2-3)C[C@H]1O [Compound 482]
systemName: MAPKAPK2 (Homo sapiens, UniProt P49137)
IC50: < 50 nM

Prompt: Form field - read-out: IC50; system: MAPKAPK2 (Homo sapiens, UniProt P49137); submitted item: CN(C)C[C@@H]1CCN(c2ccc3c(c2)Cn2cc(-c4ccc(F)cc4)cc2-c2nnnn2-3)C1 [Compound 393]
Response: < 50 nM

Prompt: Now this one: CNC[C@H]1CN(c2ccc3c(c2)Cn2cc(-c4ccc(F)cc4)cc2-c2nccn2-3)C[C@@H]1O [Compound 363]
Response: < 50 nM

Prompt: Now this one: CN(C)C[C@@H]1CN(c2ccc3c(c2)Cn2cc(-c4ccc(F)cc4)cc2-c2nccn2-3)C[C@@H]1F [Compound 475]
Response: < 50 nM

Prompt: Now this one: CN[C@@H]1CN(c2ccc3c(c2)Cn2cc(-c4ccc(F)cc4)cc2-c2ncnn2-3)C[C@H]1CO (relative stereo) [Compound 505]
Response: 50 to 100 nM

Prompt: Now this one: CNC[C@H]1CCN(c2ccc3c(c2)Cn2cc(-c4ccc(F)cc4)cc2-c2nccn2-3)C1 [Compound 348]
Response: < 50 nM

Data provenance: patent US10562909B2
